Tested on: U-87 MG xenograft
procedure_details: In vivo and ex vivo near infra red fluorescent imaging, U-87 MG xenograft
Set-up: species or system nude mice
condition_description: complex of Streptavidin-Cy5.5 with biotinylated peptide, 6 hrs after tail vein injection
Bridge positions count the residues as written; N and C are the ends. Square brackets hold non-standard residues; d marks the D form. Peptide text beside a SMILES is read from it.

molecule	target_desc	liver uptake, ex vivo imaging
N=C(N)NCCC[C@@H]1NC(=O)[C@H](CCC(=O)O)NC(=O)[C@@H](Cc2ccccc2)NC(=O)[C@H](CC(=O)O)NC(=O)CNC1=O [cyclo(RGDfE)]	U-87 MG xenograft	reverse
CC(C)[C@H]1NC(=O)[C@@H](CC(=O)O)NC(=O)[C@H](CC(=O)O)NC(=O)CNC(=O)[C@H](CCCNC(=N)N)NC(=O)CNC(=O)[C@H](N)CSSC[C@H](C(N)=O)NC1=O [LXW7, cGRGDdvc] (H-[dC]GRGD[dD][dV][dC]-NH2; disulfide 1-8)	U-87 MG xenograft	low
N=C(N)NCCC[C@@H]1NC(=O)[C@H](CCCCN)NC(=O)[C@@H](Cc2ccccc2)NC(=O)[C@H](CC(=O)O)NC(=O)CNC1=O [cyclo (RGDfK), cyclo(RGDfK)]	U-87 MG xenograft	reverse
N=C(N)NCCC[C@@H]1NC(=O)[C@H](CCCCN)NC(=O)[C@@H](Cc2ccc(O)cc2)NC(=O)[C@H](CC(=O)O)NC(=O)CNC1=O [cyclo (RGDyK), cyclo(RGDyK)]	U-87 MG xenograft	reverse

---

target_desc: αvβ3 integrin (Homo sapiens, UniProt P05106+P06756)
Sequence (P06756 31-889 limits assumed): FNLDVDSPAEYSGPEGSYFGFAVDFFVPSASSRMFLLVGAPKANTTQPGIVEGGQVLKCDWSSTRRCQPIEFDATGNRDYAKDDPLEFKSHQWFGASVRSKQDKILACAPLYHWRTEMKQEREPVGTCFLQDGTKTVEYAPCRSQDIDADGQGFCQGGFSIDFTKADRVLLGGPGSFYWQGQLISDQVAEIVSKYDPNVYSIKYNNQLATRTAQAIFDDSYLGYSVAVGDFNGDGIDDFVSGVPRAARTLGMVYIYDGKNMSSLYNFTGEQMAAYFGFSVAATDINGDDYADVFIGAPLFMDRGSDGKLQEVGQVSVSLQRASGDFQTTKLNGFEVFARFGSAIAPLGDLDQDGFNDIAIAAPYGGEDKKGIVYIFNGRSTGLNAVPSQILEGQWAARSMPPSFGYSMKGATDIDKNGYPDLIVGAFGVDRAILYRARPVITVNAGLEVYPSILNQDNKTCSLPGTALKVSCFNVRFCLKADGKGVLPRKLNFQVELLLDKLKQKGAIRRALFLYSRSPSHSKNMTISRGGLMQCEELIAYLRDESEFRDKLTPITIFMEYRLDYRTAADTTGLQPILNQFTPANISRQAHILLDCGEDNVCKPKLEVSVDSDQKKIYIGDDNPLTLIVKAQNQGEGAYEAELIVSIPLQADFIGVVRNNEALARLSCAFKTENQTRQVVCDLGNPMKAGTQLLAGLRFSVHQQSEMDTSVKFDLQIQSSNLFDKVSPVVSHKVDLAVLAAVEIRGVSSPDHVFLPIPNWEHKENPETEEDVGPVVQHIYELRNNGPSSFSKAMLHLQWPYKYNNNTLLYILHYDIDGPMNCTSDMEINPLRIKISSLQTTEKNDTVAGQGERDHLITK
Sequence (P06756 891-1048 partner limits assumed): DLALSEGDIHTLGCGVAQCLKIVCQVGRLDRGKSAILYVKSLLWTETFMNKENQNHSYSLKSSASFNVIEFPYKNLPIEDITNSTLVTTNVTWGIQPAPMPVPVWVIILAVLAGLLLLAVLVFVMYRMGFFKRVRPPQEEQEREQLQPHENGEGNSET
Sequence (P05106 27-788): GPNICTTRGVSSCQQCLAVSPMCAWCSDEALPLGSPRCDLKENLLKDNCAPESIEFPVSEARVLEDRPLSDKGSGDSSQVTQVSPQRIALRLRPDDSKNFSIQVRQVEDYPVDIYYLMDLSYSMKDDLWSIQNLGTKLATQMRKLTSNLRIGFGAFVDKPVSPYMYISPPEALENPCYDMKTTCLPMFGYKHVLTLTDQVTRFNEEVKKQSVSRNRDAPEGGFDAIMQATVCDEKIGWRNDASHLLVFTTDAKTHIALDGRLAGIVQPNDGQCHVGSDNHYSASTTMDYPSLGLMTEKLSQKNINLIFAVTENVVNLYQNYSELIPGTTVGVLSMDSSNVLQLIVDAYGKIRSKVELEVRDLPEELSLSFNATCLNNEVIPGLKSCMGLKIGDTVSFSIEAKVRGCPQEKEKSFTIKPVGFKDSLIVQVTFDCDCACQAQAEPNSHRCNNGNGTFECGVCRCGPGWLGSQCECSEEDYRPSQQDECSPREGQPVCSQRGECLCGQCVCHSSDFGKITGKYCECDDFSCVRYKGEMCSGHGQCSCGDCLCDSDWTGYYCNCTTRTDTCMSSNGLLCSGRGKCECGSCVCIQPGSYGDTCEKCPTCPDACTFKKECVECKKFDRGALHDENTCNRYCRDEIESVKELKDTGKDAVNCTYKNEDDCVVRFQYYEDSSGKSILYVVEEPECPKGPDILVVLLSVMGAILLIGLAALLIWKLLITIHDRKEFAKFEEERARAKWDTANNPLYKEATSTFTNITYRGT
procedure_details: Inhibition of biotinylated LXW7 binding to αvβ3-K562 cells (flow cytometry)
Design: expressed in transfected cells; host or cells: K562 (gift of Dr. Yoshikazu Takada, UC Davis)
condition_description: LXW9-92: inhibiting the binding of biotinylated LXW7 against αvβ3-K562 cells; class symbols
pIC50: −log10 of the molar value. Bridge positions count the residues as written; N and C are the ends. Square brackets hold non-standard residues; d marks the D form. Peptide text beside a SMILES is read from it. Pro(5R-Ph) = O=C(O)[C@@H]1CC[C@H](c2ccccc2)N1; dBta = N[C@H](Cc1csc2ccccc12)C(=O)O; dCit = NC(=O)NCCC[C@@H](N)C(=O)O; dPen = CC(C)(S)[C@@H](N)C(=O)O; βAla = NCCC(=O)O
recorded_endpoint: pIC50

molecule	recorded_measurement
N=C(N)NCCC[C@@H]1NC(=O)CNC(=O)[C@H](N)CSSC[C@H](C(N)=O)NC(=O)[C@@H](Cc2csc3ccccc23)NC(=O)[C@@H](CCCNC(N)=O)NC(=O)[C@H](CC(=O)O)NC(=O)CNC1=O [LXW73, cGRGD-DCit-DBta-c] (H-[dC]GRGD[dCit][dBta][dC]-NH2; disulfide 1-8)	5.00 to 6.00
N=C(N)NCCC[C@@H]1NC(=O)CNC(=O)[C@H](N)CSSC[C@H](C(N)=O)NC(=O)[C@@H](Cc2ccc3ccccc3c2)NC(=O)[C@@H](CC(=O)O)NC(=O)[C@H](CC(=O)O)NC(=O)CNC1=O	> 6.00
CC(C)[C@H]1NC(=O)[C@@H](CC(=O)O)NC(=O)[C@H](CC(=O)O)NC(=O)CNC(=O)[C@H](CCCNC(=N)N)NC(=O)CNC(=O)[C@H](NC(=O)CCN)CSSC[C@H](C(N)=O)NC1=O [LXW56, 3-amino propanoyl-cGRGDdvc] (H-[βAla][dC]GRGD[dD][dV][dC]-NH2; disulfide 2-9)	> 6.00
CC(C)[C@H]1NC(=O)[C@@H](CC(=O)O)NC(=O)[C@H](CC(=O)O)NC(=O)CNC(=O)[C@H](CCCNC(=N)N)NC(=O)CNC(=O)[C@H](N)C(C)(C)SSC[C@H](C(N)=O)NC1=O [LXW20, DPen-GRGDdvc] (H-[dPen]GRGD[dD][dV][dC]-NH2; disulfide 1-8)	5.00 to 6.00
CC[C@@H](C)[C@H]1NC(=O)[C@@H](CC(=O)O)NC(=O)[C@H](CC(=O)O)NC(=O)CNC(=O)[C@H](CCCNC(=N)N)NC(=O)CNC(=O)[C@H](N)CSSC[C@H](C(N)=O)NC1=O [LXW26, cGRGDdic] (H-[dC]GRGD[dD][dI][dC]-NH2; disulfide 1-8)	5.00 to 6.00

Value sought: pIC50, system αvβ3 integrin (Homo sapiens, UniProt P05106+P06756), item CC(C)[C@H]1NC(=O)[C@@H](CC(=O)O)NC(=O)[C@H](CC(=O)O)NC(=O)CNC(=O)[C@H](CCCNC(=N)N)NC(=O)CCNC(=O)[C@H](N)CSSC[C@H](C(N)=O)NC1=O [LXW15, c-β-alanine-RGDdvc] (H-[dC][βAla]RGD[dD][dV][dC]-NH2; disulfide 1-8) . Result: 5.00 to 6.00

Value sought: pIC50, system αvβ3 integrin (Homo sapiens, UniProt P05106+P06756), item N=C(N)NCCC[C@@H]1NC(=O)CNC(=O)[C@H](N)CSSC[C@H](C(N)=O)NC(=O)[C@@H]2CC[C@H](c3ccccc3)N2C(=O)[C@@H](CCC(=O)O)NC(=O)[C@H](CC(=O)O)NC(=O)CNC1=O [LXW71, cGRGDe-Ppca-c] (H-[dC]GRGD[dE][Pro(5R-Ph)][dC]-NH2; disulfide 1-8) . Result: 5.00 to 6.00
